- System: MCF-7 breast carcinoma
- PROCEDURE DETAILS: MTT cytotoxicity assay, MCF-7
- RUN PARAMETERS: Homo sapiens, MCF7, […], read-out: Cytotoxicity ED50, MCF-7
For each record, check the reported IC50: if it is below 0.7 µM write label 1, else write label 0.

{"columns": ["MOLECULE", "LABEL CLASS"],
 "data": [
  ["COc1cc(/C=C/c2ccc(Cl)cc2)cc(OC)c1OC", "label 0"]
]}

Item COc1cc(/C=C/c2cc(OC)c(OC)c(OC)c2)cc(OC)c1 : IC50 beneath 0.7 µM, strictly?
label 0

In the record for COc1cc(/C=C/c2ccc(O[Si](C)(C)C(C)(C)C)cc2)cc(OC)c1OC , is IC50 less than 0.7 µM?
label 0

Would you kindly verify if IC50 of COc1cc(/C=C\c2ccncc2)cc(OC)c1OC is strictly less than 0.7 µM?
label 0

Problem: For the molecule CCCOc1ccc(/C=C\c2cc(OC)c(OC)c(OC)c2)cc1 [compound 15b] , is IC50 under 0.7 µM?
label 1

Is it true that IC50 reported for CCOc1ccc(/C=C/c2cc(OC)c(OC)c(OC)c2)cc1 [16a] is less than 0.7 µM?
label 0

Threshold test, IC50 < 0.7 µM: COc1cc(/C=C/c2ccc(OC)c(OC)c2OC)cc(OC)c1OC
label 0

Does the reported IC50 of COc1cc(/C=C\c2ccc(C(C)(C)C)cc2)cc(OC)c1OC [compound 15g] stay below 0.7 µM?
label 0

---

- Tested on: SKMEL-5 melanoma
- PROCEDURE DETAILS: MTT cytotoxicity assay, SKMEL-5
- RUN PARAMETERS: Homo sapiens, SK-MEL-5, […], read-out: Cytotoxicity ED50, SKMEL-5
pIC50: −log10 of the molar value.
EXPERIMENTAL ENDPOINT: pIC50

{"columns": ["MOLECULE", "RESULT"],
 "data": [
  ["COc1cc(/C=C/c2cc(OC)c(OC)c(OC)c2)cc(OC)c1OC", "< 4.60"]
]}

// pIC50 lookup, molecule = COc1cc(OC)c(OC)cc1/C=C/c1cc(OC)c(OC)c(OC)c1 , result: < 4.60

Briefly, pIC50 measured for COc1ccc2c(ccc3cc(OC)c(OC)c(OC)c32)c1 [32c, 2,3,4,7-Tetramethoxyphenanthrene] : < 4.60

Query COc1cc(CCc2ccc(O)cc2)cc(OC)c1OC yields pIC50 of < 4.60

The molecule COc1cc(/C=C/c2ccccc2)cc(OC)c1OC showed pIC50 equal to < 4.60

The molecule identified as COc1cc(/C=C\c2ccc([N+](=O)[O-])cc2)cc(OC)c1OC registered its pIC50 at < 4.60

---

- System: MCF-7 breast carcinoma
- PROCEDURE DETAILS: MTT cytotoxicity assay, MCF-7
- RUN PARAMETERS: Homo sapiens, MCF7, […], read-out: Cytotoxicity ED50, MCF-7
pIC50: −log10 of the molar value.
EXPERIMENTAL ENDPOINT: pIC50

Just so you know, measured pIC50 for COc1ccc(/C=C/c2ccccc2)c(OC)c1OC [6r] came out at < 4.60

Please fill in: pIC50 reported for COc1ccc(C2Cc3cc(OC)c(OC)c(OC)c3C2)cc1 (stereo not drawn) [compound 35] = < 4.60

Consider COc1cc(OC)c(OC)cc1/C=C/c1cc(OC)c(OC)c(OC)c1 [6v] . Its measured pIC50 is < 4.60
